- test.name: MHET released, HPLC; higher = more MHET released; extreme values may be limits of the assay
- run.parameters: PET substrate: cryPow; 70 °C; pH 9.5; 24 h
value.kind: MHET released (mM)
Please reply with the bare figure in mM and do not write the unit itself.

Measured MHET released of SNPYQRGPNPTRSALTADGPFSVATYTVSRLSVSGFGGGVIYYPTGTSLTFGGIAMSPGYTADASSLAWLGRRLASHGFVVLVINTNSRFDGPDSRASQLSAALNYLRTSSPSAVRARLDANRLAVAGHSMGGGGTLRIAEQNPSLKAAVPLTPWHTDKTFNTSVPVLIVGAEADTVAPVSQHAIPFYQNLPSTTPKVYVELCNASHIAPNSNNAAISVYTISWMKLWVDNDTRYRQFLCNVNDPALCDFRTNNRHCQ [LCC-ICCG] : 0.1

The reported value for QTNPYARGPDPTAASLEASAGPFTVRSFTVSRPSGYGAGTVYYPTNAGGTVGAIAIVPGYTARQSSIKWWGPRLASHGFVVITIDTNSTLDQPESRSSQQMAALEQVASLNGTSSSPIYGKVDTARMGVMGWSMGGGGSLISACNNPSLKAAVVQAPWHSSTNFSCVTVPTLIFACENDSIAPVNSSALPIYDSMSENAKQFLEICGGSHSCANTGNSDQALIGKKGVAWMKRFMDNDTRYSTFACENPNSTRVCDFRTANCS [Z1-PETase] in terms of MHET released is 0.0142

GET /value?item= ANPYERGPNPTDALLEARSGPFSVSEENVSRLSASGFGGGTIYYPRENNTYGAVAISPGYTGTEASIAWLGERIASHGFVVITIDTITTLDQPDSRAEQLNAALNHMINRASSTVRSRIDSSRLAVMGHSMGGGGSLRLASQRPDLKAAIPLTPWHLNKNWSSVTVPTLIIGADLDTIAPVATHAKPFYNSLPSSISKAYLELDGATHFAPNIPNKIIGKYSVAWLKRFVDNDTRYTQFLCPGPRDGLFGEVEEYRSTCPF [TfCut2] &field=MHET released returns 0

Sure, the documented MHET released for SNPYQRGPNPTRSALTATGPFSVATYTVSRLLVSGFGGGVIYYPTGTSLTFGGIAMSPGYTADASSLAWLGRRLASHGFVVLVINTNSRFDGPDSRARQLSAALNYLRTSSPSAVRARLDANRLAVAGHSMGGGGTLRIAEQNPSLKAAVPLTPWHPDKTFNTSVPVLIVGAQADTVAPVSQHAIPFYQNLPSTTPKVYVELCNASHIAPNSPNAAISVYTISWMKLWVDNDTRYRQFLCNVNDPALCDFRTNNRHCQ [LCC-ICCG I6M] is 0.0223

Recorded MHET released (sequence SNPYQRGPNPTRSALTADGPFSVATYTVSRLSVSGFGGGVIYYPTGTSLTFGGIAMSPGYTADASSLAWLGRRLASHGFVVLVINTNSRFDGPDSRASQLSAALNYLRTSSPSAVRARLDANRLAVAGHSMGGGGTLRIAEQNPSLKAAVPLTPWHTDKTFNTSVPVLIVGAEADTVAPVSQYAIPFYQNLPSTTPKVYVELCNASHIAPNSDNAAISVYTISWMKLWVDNDTRYRQFLCNVNDPALCDFRTNNRHCQ [LCC-A2] ): 0.189

For record SNPYQRGPNPTRSALTADGPFSVATYTVSRLSVSGFGGGVIYYPTGTSLTFGGIAMSPGYTADASSLAWLGRRLASHGFVVLVINTNSRFDGPDSRASQLSAALNYLRTSDPSAVRARLDANRLAVAGHSMGGGATLRIAEQNPSLKAAIPLTPWHTQKTFNTSVPVLIVGAEADTVAPVSQHAIPFYQNLPSTTPKVYVELCNASHIAPNSNNAAISVYTISWMKLWVDNDTRYRQFLCNVNDPALCDFRTNNRHCQ [LCC-ICCG DAQI] the listed MHET released is 0.0936

Value of measured MHET released for the entry ADNPYQRGPDPTNASIEAATGPFAVGTQPIVGASGFGGGQIYYPTDTSQTYGAVVIVPGFISVWAQLAWLGPRLASQGFVVIGIETSTITDLPDPRGDQALAALDWATTRSPVRSRIDRTRLAAAGWSMGGGGLRRAACQRPSLKAIVGMAPWNTEKNWSCVTVPTLFFGGSSDAVASPNDHAKPFYNSITRAEKDYIELCNADHFFPTSANTTMAKYFISWLKRWVDNDTRYTQFLCPGPSTGLFAPVCASMNTCPF [CaPETaseM9] : 0
